Cited source for all entries: patent US9187465B2

Assay target: human FLT4 (Homo sapiens)
Construct: a construct expressing the human FLT4 (789-1207) with an amino terminal GST tag; host or cells: Sf9 insect cells (baculovirus)
Sequence (P35916 789-1207): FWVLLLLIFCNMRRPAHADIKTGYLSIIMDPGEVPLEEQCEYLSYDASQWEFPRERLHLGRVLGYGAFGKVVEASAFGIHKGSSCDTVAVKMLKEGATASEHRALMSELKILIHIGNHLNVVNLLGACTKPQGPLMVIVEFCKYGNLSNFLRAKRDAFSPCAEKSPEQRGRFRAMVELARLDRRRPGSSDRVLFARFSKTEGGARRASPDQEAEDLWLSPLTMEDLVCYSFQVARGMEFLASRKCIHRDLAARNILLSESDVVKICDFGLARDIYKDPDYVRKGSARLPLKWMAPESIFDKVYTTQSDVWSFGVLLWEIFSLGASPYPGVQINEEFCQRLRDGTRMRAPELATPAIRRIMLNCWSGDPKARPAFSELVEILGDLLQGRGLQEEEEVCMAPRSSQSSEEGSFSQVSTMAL
Protocol details: FLT4 kinase assay (DELFIA enzyme inhibition)
Format: biochemical
Test parameters: read-out: FLT4 IC50
Endpoint name: IC50

Example results:
GET /values?readout=IC50&system=human FLT4 (Homo sapiens)&item= "NC(=O)c1nc(Nc2ccc3[nH]ncc3c2)oc1-c1ccc(N2CCNCC2)cc1"
< 10 µM

GET /values?readout=IC50&system=human FLT4 (Homo sapiens)&item= "NC(=O)c1nc(-c2c(F)cccc2F)oc1Nc1ccc(S(=O)(=O)N2CCOCC2)cc1"
< 10 µM

GET /values?readout=IC50&system=human FLT4 (Homo sapiens)&item= "NC(=O)c1nc(-c2c(F)cccc2F)oc1-c1cccc(CN2CCOCC2)c1"
< 100 µM

GET /values?readout=IC50&system=human FLT4 (Homo sapiens)&item= "CC(=O)N1CCN(c2ccc(-c3oc(-c4c(F)cccc4F)nc3C(N)=O)cn2)CC1"
< 10 µM

Turning now to a further record.
GET /values?readout=IC50&system=human FLT4 (Homo sapiens)&item= "NC(=O)c1nc(-c2c(F)cccc2F)oc1Nc1ccc(N2CCOCC2)nc1"
< 10 µM
